The measured values listed here are drawn from ChEMBL document CHEMBL4266039.

Form: system (Beta-secretase 1 (Homo sapiens, UniProt P56817)), quantity (pKi), values below.
Schema: pKi number; meaning minus log10 of the concentration expressed in molar units.

Examples from the recorded data:
CN1C(=N)N[C@@]2(c3cc(Br)cs3)CN(c3ncc(F)cn3)C[C@H]2C1=O : 7.00
CN1C(=N)N[C@@]2(c3cc(-c4cccc(Cl)c4)cs3)CN(c3ncc(F)cn3)C[C@H]2C1=O : 9.00
CN1C(=N)N[C@@]2(c3cc(-c4cccc(C#N)c4)cs3)CN(c3ncc(F)c(N4CCOCC4)n3)C[C@H]2C1=O : 9.00
CCOc1nc(N2C[C@H]3C(=O)N(C)C(=N)N[C@@]3(c3cc(-c4cccc(C#N)c4)cs3)C2)ncc1F : 9.00

We now examine a further molecule.
Can you share its pKi? I mean this molecule: COc1nc(N2C[C@H]3C(=O)N(C)C(=N)N[C@@]3(c3cc(-c4cccc(C#N)c4)cs3)C2)nc(C)c1F 9.15

* * *

Each entry below carries its measured Ki, system: Beta-secretase 1 (Homo sapiens, UniProt P56817).
Sequence (P56817 whole entry): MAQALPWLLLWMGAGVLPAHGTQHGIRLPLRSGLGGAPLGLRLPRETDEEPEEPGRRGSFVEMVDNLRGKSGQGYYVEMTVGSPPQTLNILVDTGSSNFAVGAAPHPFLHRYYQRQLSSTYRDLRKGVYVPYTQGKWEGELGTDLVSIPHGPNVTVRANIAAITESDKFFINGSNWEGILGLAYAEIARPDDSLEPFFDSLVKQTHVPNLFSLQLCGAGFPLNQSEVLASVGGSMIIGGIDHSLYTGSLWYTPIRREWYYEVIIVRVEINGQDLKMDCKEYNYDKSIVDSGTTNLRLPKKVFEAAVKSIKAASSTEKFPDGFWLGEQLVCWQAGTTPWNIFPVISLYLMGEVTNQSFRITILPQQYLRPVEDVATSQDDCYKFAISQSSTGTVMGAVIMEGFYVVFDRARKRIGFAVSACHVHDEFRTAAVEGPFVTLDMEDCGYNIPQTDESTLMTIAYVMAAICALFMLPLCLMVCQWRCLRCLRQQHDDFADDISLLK
Give just the number in nM; leave the unit off.

CCc1nc(N2C[C@H]3C(=O)N(C)C(=N)N[C@@]3(c3cc(-c4cccc(C#N)c4)cs3)C2)ncc1F : 1

Bench note: what Ki did COc1cc(C#N)cc(-c2csc([C@]34CN(c5ncc(F)cn5)C[C@H]3C(=O)N(C)C(=N)N4)c2)c1 show? 1

And the next one, CN1C(=N)N[C@@]2(c3cc(-c4cc(F)cc(F)c4)cs3)CN(c3ncc(F)cn3)C[C@H]2C1=O ? 10

Also check CN1C(=N)N[C@@]2(c3cc(-c4cc(F)cc(C#N)c4)cs3)CN(c3ncc(F)cn3)C[C@H]2C1=O 2

* * *

assay: AUC (0 to infinity) in Han Wistar rat at 10 mg/kg, po; assay type: ADME, organism-based; design: dose 10 mg/kg, route oral, time infinity; conditions: in vivo
reported-endpoint: AUC(0-inf) (µM·h)
Return type: number; implicit unit µM·h.

Given Cc1nc(N2C[C@H]3C(=O)N(C)C(=N)N[C@@]3(c3cc(-c4cccc(C#N)c4)cs3)C2)nc(C)c1F , state its recorded AUC(0-inf). 34

* * *

assay: Protein binding in rat plasma; format: ADME, cell-free; settings: read-out: PPB (converted)
reported-endpoint: fraction unbound
Provide a numeric answer; units are not to be included.

Given the compound Cc1nc(N2C[C@H]3C(=O)N(C)C(=N)N[C@@]3(c3cc(-c4cccc(C#N)c4)cs3)C2)nc(C)c1F , what is its reported fraction unbound? 0.003

* * *

assay: Cmax in Han Wistar rat at 10 mg/kg, po; type: ADME, organism-based; design: dose 10 mg/kg, route oral; conditions: in vivo
reported-endpoint: Cmax (µM)
Could you give me the number in µM? Just the number is fine.

Consider the compound Cc1nc(N2C[C@H]3C(=O)N(C)C(=N)N[C@@]3(c3cc(-c4cccc(C#N)c4)cs3)C2)nc(C)c1F and give its measured Cmax. 5.8

* * *

experiment: Half life in Han Wistar rat at 2 mg/kg, iv; assay type: ADME, organism-based; conditions: in vivo
reported-endpoint: half-life (h)
Give a bare numeral; the unit h is implied.

# input molecule: Cc1nc(N2C[C@H]3C(=O)N(C)C(=N)N[C@@]3(c3cc(-c4cccc(C#N)c4)cs3)C2)nc(C)c1F ; wanted: its half-life 2.1

* * *

assay: Clearance in Han Wistar rat at 2 mg/kg, iv; type: ADME, organism-based; details: in vivo
reported-endpoint: clearance
Please format your answer as a value with the unit trailing.

Which clearance is listed for Cc1nc(N2C[C@H]3C(=O)N(C)C(=N)N[C@@]3(c3cc(-c4cccc(C#N)c4)cs3)C2)nc(C)c1F ? 5.6 mL/min/kg

* * *

Here's what we have: pIC50 numbers for Cytochrome P450 3A4 (Homo sapiens).
Please keep in mind that pIC50 is minus log10 of the molar concentration; only the number is needed.

Consider the following illustrative entries.
CCc1nc(N2C[C@H]3C(=O)N(C)C(=N)N[C@@]3(c3cc(-c4cccc(C#N)c4)cs3)C2)ncc1F : 6.05
CCOc1nc(N2C[C@H]3C(=O)N(C)C(=N)N[C@@]3(c3cc(-c4cccc(C#N)c4)cs3)C2)ncc1F : 6.15
CCCOc1nc(N2C[C@H]3C(=O)N(C)C(=N)N[C@@]3(c3cc(-c4cccc(C#N)c4)cs3)C2)ncc1F : 5.92

I have this compound here, CN1C(=N)N[C@@]2(c3cc(-c4cc(F)cc(C#N)c4)cs3)CN(c3ncc(F)cn3)C[C@H]2C1=O , and I need its recorded pIC50. 5.80

Also COc1cc(C#N)cc(-c2csc([C@]34CN(c5ncc(F)cn5)C[C@H]3C(=O)N(C)C(=N)N4)c2)c1 ? 5.80
